test system: HCT-116; assay: cells; settings: Homo sapiens, HCT-116, 72 h
pIC50: −log10 of the molar value.
Readout label: pIC50

{"Smi": "O=C(NO)c1ccc(/C=C/c2cccc(-c3ccccc3O)c2)cc1", "pIC50": 5.37}
{"Smi": "O=C(NO)c1cccc(/C=C/c2ccnc(-c3ccccc3O)c2)c1", "pIC50": 5.47}

----------
target: Lysine-specific histone demethylase 1A (Homo sapiens, UniProt O60341); experiment: Inhibition of recombinant LSD1 (157 to 852 residues) (unknown origin) expressed in Escherichia coli BL21 (DE) using H3K4me2 as substrate by amplex red assay
Readout label: IC50 (nM)

{"Smi": "O=C(NO)c1ccc(/C=C/c2ccnc(-c3cccnc3)c2)cc1", "Display unit": "nM", "IC50": 1370}
{"Smi": "O=C(NO)c1ccc(/C=C/c2cccc(-c3cc(F)ccc3O)c2)cc1", "Display unit": "nM", "IC50": 3510}
{"Smi": "O=C(NO)c1cccc(/C=C/c2ccnc(-c3ccccc3O)c2)c1", "Display unit": "nM", "IC50": 2260}
{"Smi": "O=C(NO)c1ccc(/C=C/c2ccnc(-c3cc(F)ccc3O)c2)cc1", "Display unit": "nM", "IC50": 2200}
{"Smi": "O=C(NO)c1ccc(/C=C/c2ccnc(Br)c2)cc1", "Display unit": "nM", "IC50": 1020}
{"Smi": "Cc1ccc(-c2cc(/C=C/c3ccc(C(=O)NO)cc3)ccn2)cc1", "Display unit": "nM", "IC50": 2700}

1 = COc1ccccc1-c1cc(/C=C/c2ccc(C(=O)NO)cc2)ccn1
2 = Cc1ccc(-c2cncc(/C=C/c3ccc(C(=O)NO)cc3)c2)c(F)c1
3 = COc1ccc(F)cc1-c1cncc(/C=C/c2ccc(C(=O)NO)cc2)c1
input: Please list these compounds in decreasing order of IC50. Please, when replying, give the labels in the order that was requested.
output: 2, 3, 1

----------
system: HCT-116; assay: cells; conditions: Homo sapiens, HCT-116, 72 h
pIC50: −log10 of the molar value.
// values below are reported pIC50

Consider the reported pIC50 for these compounds:
{"Smi": "O=C(NO)c1ccc(/C=C/c2ccnc(-c3ccc(C(F)(F)F)cc3)c2)cc1", "pIC50": "< 5.00"}
{"Smi": "O=C(NO)c1ccc(/C=C/c2cc(-c3ccc(C(F)(F)F)cc3)ncc2F)cc1", "pIC50": "< 5.00"}
{"Smi": "Cc1ccc(-c2cc(/C=C/c3ccc(C(=O)NO)cc3)c(F)cn2)cc1", "pIC50": "< 5.00"}
{"Smi": "O=C(NO)c1ccc(/C=C/c2cncc(-c3ccc(C(F)(F)F)cc3)c2)cc1", "pIC50": "< 5.00"}
{"Smi": "O=C(NO)c1ccc(/C=C/c2cccc(-c3cccc(O)c3)c2)cc1", "pIC50": "< 5.00"}
{"Smi": "Cc1ccc(-c2cncc(/C=C/c3ccc(C(=O)NO)cc3)c2)cc1", "pIC50": "< 5.00"}

input: Fill in: pIC50 of O=C(NO)c1ccc(/C=C/c2ccnc(Br)c2)cc1 is ___
output: < 5.00

----------
tested on: HCT-116; assay: cells; conditions: Homo sapiens, HCT-116, 72 h
// values below are reported IC50

Consider the reported IC50 for these compounds:
{"Smi": "O=C(NO)c1ccc(/C=C/c2cccc(-c3cc(F)ccc3O)c2)cc1", "Target or test system": "HCT-116", "Readout label": "IC50", "Result": "> 10 µM"}
{"Smi": "O=C(/C=C/c1ccc(/C=C/c2ccnc(-c3ccccc3O)c2)cc1)NO", "Target or test system": "HCT-116", "Readout label": "IC50", "Result": "> 10 µM"}

Kindly review the next compound as well.
input: Give IC50 (HCT-116) of the following compound: O=C(NO)c1ccc(/C=C/c2ccnc(-c3ccc(F)cc3)c2)cc1
output: > 10 µM
